The values you see were collected from ChEMBL document CHEMBL1133950.

// endpoint IC50 / system Adenosine kinase (Rattus norvegicus, UniProt Q64640)
test_readout: IC50 (µM)

[
  {
    "given_smiles": "Nc1ncnc(N[C@@H]2O[C@H](CO)[C@@H](O)[C@H]2O)c1C1=NCCO1",
    "unit_tag": "µM",
    "IC50": 4
  }
]

I. NC[C@H]1O[C@@H](Nc2ncnc(N)c2[N+](=O)[O-])[C@H](O)[C@@H]1O
II. COC(=O)c1c(N)ncnc1N[C@@H]1O[C@H](CO)[C@@H](O)[C@H]1O
# return whichever of I and II has the smaller IC50 Write the label of whichever entry you select.
I

====

- experimental_system: Adenosine kinase (Rattus norvegicus)
- Sequence (Q64640 whole entry): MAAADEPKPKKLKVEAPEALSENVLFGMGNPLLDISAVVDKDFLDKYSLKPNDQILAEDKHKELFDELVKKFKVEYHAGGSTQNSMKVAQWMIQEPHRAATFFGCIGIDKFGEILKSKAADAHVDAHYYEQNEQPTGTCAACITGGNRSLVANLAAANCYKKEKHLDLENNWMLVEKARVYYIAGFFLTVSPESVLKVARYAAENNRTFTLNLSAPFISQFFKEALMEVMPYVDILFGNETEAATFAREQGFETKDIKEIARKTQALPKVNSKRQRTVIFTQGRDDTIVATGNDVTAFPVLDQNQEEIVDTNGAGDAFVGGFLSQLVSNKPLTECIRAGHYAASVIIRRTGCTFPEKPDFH
pIC50: −log10 of the molar value.
# Lookup of reported pIC50 keyed by entry

[
  {
    "given_smiles": "Nc1ncnc(N[C@@H]2O[C@H](CBr)[C@@H](O)[C@H]2O)c1[N+](=O)[O-]",
    "test_readout": "pIC50",
    "result": "< 5.00"
  },
  {
    "given_smiles": "COC(=O)c1c(N)ncnc1N[C@@H]1O[C@H](C)[C@@H](O)[C@H]1O",
    "test_readout": "pIC50",
    "result": 5.21
  }
]

Value lookup for pIC50; key = `COC(=O)c1c(Cl)ncnc1N[C@@H]1O[C@H](CO)[C@@H](O)[C@H]1O`
< 5.00
